Data provenance: the supplement of paper PMC10567573

Known protein stability index of a selection of variants
B1: CCDC6 (parent)
chain: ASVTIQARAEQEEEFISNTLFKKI

- Variants of: B1
- PROTOCOL: protein stability index of a GFP-peptide fusion (GPS, HEK-293T) (PSI 1-6); higher = more stable;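 note: lentivirally expressed fusions sorted by FACS into six bins by GFP to DsRed ratio, PSI derived from sequencing read proportions per bin multiplied by bin number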
- STUDY CONDITIONS: c terminus: a fixed tail appended
PARAMETER: protein stability index

variant_designation=I24V parameter="protein stability index" measured_value=3.71
variant_designation=E13N parameter="protein stability index" measured_value=3.16
variant_designation=K23W parameter="protein stability index" measured_value=2.23
variant_designation=E12F parameter="protein stability index" measured_value=2.12
variant_designation=I5P parameter="protein stability index" measured_value=4.7
variant_designation=E13G parameter="protein stability index" measured_value=3.39
variant_designation=A9K parameter="protein stability index" measured_value=3.6
variant_designation=A9P parameter="protein stability index" measured_value=3.87
variant_designation=K22W parameter="protein stability index" measured_value=2.1
variant_designation=A1F parameter="protein stability index" measured_value=2.08
variant_designation=S17P parameter="protein stability index" measured_value=3.92
variant_designation=A1L parameter="protein stability index" measured_value=2.48
variant_designation=I16Q parameter="protein stability index" measured_value=4.66
variant_designation=V3D parameter="protein stability index" measured_value=4.89
variant_designation=S2V parameter="protein stability index" measured_value=2.73
variant_designation=F15G parameter="protein stability index" measured_value=4.4
variant_designation=A9L parameter="protein stability index" measured_value=2.5
variant_designation=F15T parameter="protein stability index" measured_value=4.52
variant_designation=N18P parameter="protein stability index" measured_value=3.96
variant_designation=A7M parameter="protein stability index" measured_value=2.67
variant_designation=L20Q parameter="protein stability index" measured_value=4.62
variant_designation=S2D parameter="protein stability index" measured_value=4.58
variant_designation=T19I parameter="protein stability index" measured_value=2.94
variant_designation=A7G parameter="protein stability index" measured_value=3.66
variant_designation=I24A parameter="protein stability index" measured_value=4.14
variant_designation=S2P parameter="protein stability index" measured_value=4.25
variant_designation=L20P parameter="protein stability index" measured_value=4.14
variant_designation=L20G parameter="protein stability index" measured_value=4.66
variant_designation=T4G parameter="protein stability index" measured_value=3.63
variant_designation=F21Q parameter="protein stability index" measured_value=5.01
variant_designation=F21I parameter="protein stability index" measured_value=3.58
variant_designation=A9H parameter="protein stability index" measured_value=3.17
variant_designation=S17N parameter="protein stability index" measured_value=3.59
variant_designation=S2L parameter="protein stability index" measured_value=2.32
variant_designation=I24R parameter="protein stability index" measured_value=4.03
variant_designation=I5K parameter="protein stability index" measured_value=4.65
variant_designation=Q11N parameter="protein stability index" measured_value=3.71
variant_designation=A1V parameter="protein stability index" measured_value=2.56
variant_designation=F15H parameter="protein stability index" measured_value=3.72
variant_designation=A7C parameter="protein stability index" measured_value=2.45
variant_designation=E10A parameter="protein stability index" measured_value=3.06
variant_designation=F15D parameter="protein stability index" measured_value=4.68
variant_designation=L20E parameter="protein stability index" measured_value=4.51
variant_designation=A9T parameter="protein stability index" measured_value=3.68
